FYI, the data here is from patent US10202339B2.

- system: IDH2 R140Q (Homo sapiens (Human), UniProt P48735, R140Q)
- Sequence (P48735 40-452 R140Q): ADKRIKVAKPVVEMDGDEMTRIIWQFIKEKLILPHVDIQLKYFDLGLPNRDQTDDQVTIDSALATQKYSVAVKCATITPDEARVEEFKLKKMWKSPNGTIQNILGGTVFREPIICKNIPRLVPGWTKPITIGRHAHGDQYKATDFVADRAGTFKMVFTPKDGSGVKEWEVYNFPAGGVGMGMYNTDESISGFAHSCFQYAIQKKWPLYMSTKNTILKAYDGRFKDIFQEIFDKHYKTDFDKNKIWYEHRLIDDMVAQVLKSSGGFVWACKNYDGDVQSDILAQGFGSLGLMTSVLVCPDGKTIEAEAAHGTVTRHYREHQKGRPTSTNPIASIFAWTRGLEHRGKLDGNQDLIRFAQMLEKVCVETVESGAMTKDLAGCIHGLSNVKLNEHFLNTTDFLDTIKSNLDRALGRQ
- assay overview: IDH2 R140Q enzymatic cofactor depletion assay (diaphorase/resazurin)
- assay conditions: IDH2 R140Q enzyme, one hour preincubation with compound, one hour reaction; read-out: Enz R140Q
result type: IC50

Request: Need IC50, item CCS(=O)(=O)c1ccc(S(=O)(=O)NCC(F)(F)F)cc1NC(=O)Nc1cccc(C(F)(F)F)c1 [Compound 196]
Result: < 100 nM

Request: Need IC50, item O=C(Nc1cc(S(=O)(=O)NCC(F)(F)F)ccc1-c1ccccc1)Nc1ccncc1C(F)(F)F [Compound 78]
Result: 100 to 1000 nM

Request: Tell me the measured IC50 of O=C(Nc1cc(S(=O)(=O)Nc2ccccc2)ccc1-c1ccsc1)Nc1ccccc1C(F)(F)F [Compound 10] , please.
Result: 100 to 1000 nM

Request: What value of IC50 has been recorded for this entry: N#CC1(NS(=O)(=O)c2ccc(-c3ccsc3)c(NC(=O)Nc3cccc(C(F)(F)F)c3)c2)CC1 [Compound 31]
Result: < 100 nM

Request: Requested read-out: IC50. Entry: COc1cccc(NC(=O)Nc2cc(S(=O)(=O)Nc3ccccc3)ccc2-c2ccsc2)c1 [Compound 7]
Result: 100 to 1000 nM

Request: Report IC50 for O=C(Nc1cccc(C(F)(F)F)c1)Nc1cc(S(=O)(=O)N2CCOCC2)ccc1-n1ccnc1 [Compound 346] please.
Result: 1000 to 10000 nM

Request: Returns the measured IC50 for the input compound. Input: O=C(Nc1cccc(C(F)(F)F)c1)Nc1cc(S(=O)(=O)NC2CCOCC2)ccc1-c1ccsc1 [Compound 132]
Result: 100 to 1000 nM

Request: Fill blank: measured IC50 of the compound O=C(Nc1cccc(C(F)(F)F)c1)Nc1cc(S(=O)(=O)NC2CC2)ccc1-n1ccnc1 [Compound 345] is ____.
Result: 100 to 1000 nM

Request: For COCCNS(=O)(=O)c1ccc(-c2ccsc2)c(NC(=O)Nc2cccc(C(F)(F)F)c2)c1 [Compound 121] , what is its reported IC50?
Result: 100 to 1000 nM

Request: Need IC50, item O=C(Nc1cccc(Cl)c1)Nc1cc(S(=O)(=O)NCC2CC2)ccc1C1CCCCO1 (stereo not shown) [Compound 163]
Result: 100 to 1000 nM

Request: // lookup IC50 for O=C(Nc1cc(S(=O)(=O)NCC(F)(F)F)ccc1-c1ccccc1)Nc1cccnc1F [Compound 97]
Result: 100 to 1000 nM

Request: # IC50 lookup, item CC(C)C(CO)NS(=O)(=O)c1ccc(-c2ccsc2)c(NC(=O)Nc2cccc(C(F)(F)F)c2)c1 (stereo not shown) [Compound 123]
Result: 100 to 1000 nM

Request: Report IC50 for CCCCNS(=O)(=O)c1ccc(-c2ccsc2)c(NC(=O)Nc2cccc(C(F)(F)F)c2)c1 [Compound 114] please.
Result: 100 to 1000 nM

Request: Suppose we examine the compound O=C(Nc1cccc(C(F)(F)F)c1)Nc1cc(S(=O)(=O)NC2CCC2)ccc1-c1ccsc1 [Compound 125] ; what IC50 value has been reported?
Result: 100 to 1000 nM

Request: Entry O=C(Nc1cccc(C(F)(F)F)c1)Nc1cc(S(=O)(=O)NCC(F)(F)F)ccc1Oc1cccnc1 [Compound 186] has what IC50?
Result: 100 to 1000 nM

Request: Fill in: IC50 of O=C(Nc1cccc(C(F)(F)F)c1)Nc1cc(S(=O)(=O)NCC(F)(F)F)ccc1-c1ccsc1 [Compound 130] is ___
Result: 100 to 1000 nM

Request: Would you kindly share the measured IC50 for CC1(C)CCCC(NC(=O)Nc2cc(S(=O)(=O)NCC(F)(F)F)ccc2-c2ccccc2)C1 (stereo not shown) [Compound 73] ?
Result: 1000 to 10000 nM

Request: Using the record for N#CC1(NS(=O)(=O)c2ccc(OCC3CC3)c(NC(=O)Nc3cccc(C(F)(F)F)c3)c2)CC1 [Compound 179] , report its IC50.
Result: 100 to 1000 nM

Request: # lookup: IC50 of Cc1ccnc(NC(=O)Nc2cc(S(=O)(=O)NCC(F)(F)F)ccc2-c2ccccc2)n1 [Compound 107]
Result: 1000 to 10000 nM

Request: Requested field: IC50. Item: O=C(Nc1cccc(F)n1)Nc1cc(S(=O)(=O)NCC(F)(F)F)ccc1-c1ccccc1 [Compound 86]
Result: 100 to 1000 nM

Request: Returns the measured IC50 for the input compound. Input: O=C(Nc1ccccn1)Nc1cc(S(=O)(=O)Nc2ccccc2)ccc1-c1ccsc1 [Compound 22]
Result: 1000 to 10000 nM

Request: // lookup IC50 for O=C(Nc1ccc(F)c(C(F)(F)F)c1)Nc1cc(S(=O)(=O)Nc2ccccc2)ccc1-c1ccsc1 [Compound 21]
Result: 1000 to 10000 nM

Request: Looking for the measured IC50 of O=C(Nc1cc(S(=O)(=O)NCC(F)(F)F)ccc1-c1ccccc1)NC1CCCC1 [Compound 54] , can you help?
Result: 1000 to 10000 nM

Request: Could you share which IC50 value was measured for O=C(Nc1cc(S(=O)(=O)NCC(F)(F)F)ccc1-c1ccccc1)Nc1ncccc1F [Compound 99] ?
Result: 1000 to 10000 nM

Request: Fill blank: measured IC50 of the compound Cc1ccc(NC(=O)Nc2c(Cl)cccc2Cl)cc1S(=O)(=O)Nc1ccc(Cl)cc1 [Compound 352] is ____.
Result: 100 to 1000 nM

Request: Need IC50 of O=C(Nc1cccc(C(F)(F)F)c1)Nc1cc(S(=O)(=O)NC2CC2)ccc1N1CCOCC1 [Compound 348] , thanks.
Result: 1000 to 10000 nM

Request: I'd like to know its IC50. The compound in question is O=C(Nc1ccc(F)c(C(F)(F)F)c1)Nc1cc(S(=O)(=O)NCC2CC2)ccc1C1CCCCO1 (stereo not shown) [Compound 164]
Result: 100 to 1000 nM

Request: Would you mind telling me what IC50 value was observed for CC1CCC(NC(=O)Nc2cc(S(=O)(=O)Nc3ccccc3)ccc2-c2ccsc2)CC1 (stereo not shown) [Compound 24] ?
Result: 1000 to 10000 nM

Request: Look up IC50 for this compound: O=C(Nc1cccc(C(F)(F)F)c1)Nc1cc(S(=O)(=O)Nc2ccccc2)ccc1-c1cccnc1 [Compound 61]
Result: 1000 to 10000 nM

Request: // query IC50 value for entry O=C(Nc1ncc(Cl)s1)Nc1cc(S(=O)(=O)NCC(F)(F)F)ccc1C1CCOC1 (stereo not shown) [Compound 172]
Result: 1000 to 10000 nM

Request: What value of IC50 has been recorded for this entry: CCC(C)NS(=O)(=O)c1ccc(-c2ccsc2)c(NC(=O)Nc2cccc(C(F)(F)F)c2)c1 (stereo not shown) [Compound 117]
Result: 100 to 1000 nM
